// reported TGI per item
# Test system: SNB-75 CNS
# TEST_DETAILS: NCI tumour cell line growth inhibition, 48 h
Just the number in µM, nothing appended.

The following compounds have reported results that may help.
{"COMPOUND": "CCOC1c2cc(OC)c(OC)cc2-c2ccc3ccccc3c2N1C (stereo not given)", "READING_UNIT": "µM", "TGI": 34.9}
{"COMPOUND": "O=C1NC(=O)C2C1c1[nH]c3ccccc3c1C1CCCC12 (stereo not given)", "READING_UNIT": "µM", "TGI": 6.29}
{"COMPOUND": "COc1ccc(C(=O)/C=C/c2ccc(OCc3ccc(Cl)cc3)cc2)cc1OC", "READING_UNIT": "µM", "TGI": 484}

Okay, next one:
Readout TGI for COc1ccc2c(c1)CC[C@@H]1C2CC[C@]2(C)C(=O)N(CCN3CCCC3)C(=O)CC12 (stereo not given in full) , test system SNB-75 CNS, was 87.1

----------
# Test system: SF-539 CNS
# TEST_DETAILS: NCI tumour cell line growth inhibition, 48 h
// reported GI50 per item

{"GIVEN_SMILES": "CO/N=C(\\COc1ccc2c(=O)cc(-c3ccccc3)oc2c1)c1ccc(F)cc1", "ASSAYED_TARGET": "SF-539 CNS", "RESULT": "94.8 µM"}

Readout GI50 for Cn1cc(-c2ccc(-c3cn(C)c4ncccc34)[nH]2)c2cccnc21 , test system SF-539 CNS, was 1.59 µM

Readout GI50 for COc1ccc2[nH]c(C(=O)N3CCN(C(=O)OCc4ccc5c(Br)cc(Br)c(O)c5n4)CC3)cc2c1 , test system SF-539 CNS, was 0.926 µM

Readout GI50 for Clc1ccc(CN2COc3c(ccc4cccnc34)C2)cc1Cl , test system SF-539 CNS, was 1.28 µM

Readout GI50 for Cc1ccc(S(=O)(=O)Oc2ccccc2-c2ccccc2)cc1 , test system SF-539 CNS, was 2.38 µM

----------
# System: MCF7 breast
# TEST_DETAILS: NCI tumour cell line growth inhibition, 48 h; in the data active means GI50 below about 0.43 µM; inactive means the rest
The categories you may choose from are t = active, f = inactive

{"MOLECULE": "COc1ccc(OC)c(Nc2nc3ccccc3c3c2-c2ccc(OC)cc2C3=O)c1", "LABEL_VALUE": "f"}
{"MOLECULE": "O=c1c2c3c(sc2n2c(CCl)nnc2n1Cc1ccccc1)CCCC3", "LABEL_VALUE": "f"}
{"MOLECULE": "N#Cc1ccccc1C#C/C=C\\C#Cc1cccs1", "LABEL_VALUE": "f"}
{"MOLECULE": "NC(=O)[C@@H](CCC(F)(F)F)N(Cc1ccc(-c2ncon2)cc1F)S(=O)(=O)c1ccc(Cl)cc1", "LABEL_VALUE": "f"}
{"MOLECULE": "COc1ccc(C(=O)C2C(C#N)C(C#N)C3C=Cc4ccccc4N32)cc1 (stereo not drawn)", "LABEL_VALUE": "f"}
{"MOLECULE": "COc1ccc2[nH]c(C(=O)N3CCN(C(=O)OCc4ccc5c(Br)cc(Br)c(O)c5n4)CC3)cc2c1", "LABEL_VALUE": "t"}
{"MOLECULE": "O=C(N/N=C\\c1cc(Cl)ccc1O)c1ccncc1", "LABEL_VALUE": "f"}
{"MOLECULE": "CCC(=O)Oc1cc(/C=C/C(=O)O[C@H]2C[C@H]3CN4CCc5c([nH]c6cc(OC)ccc56)[C@@H]4C[C@@H]3[C@@H](C(=O)OC)[C@@H]2OC)ccc1OC", "LABEL_VALUE": "f"}
{"MOLECULE": "COc1ccc(NC(=O)c2sc3nc(C)c(C(=O)/C=C/c4ccccc4)cc3c2N)cc1", "LABEL_VALUE": "f"}
{"MOLECULE": "O=C1N=C(c2c(-c3[nH]c(=O)c4ccc(Br)cc4c3O)c(O)c3ccccc3c2O)C(=O)c2cc(Br)ccc21", "LABEL_VALUE": "t"}

QUERY: Name the outcome recorded for NCCOc1ncccc1/C=C1\C2C=CC=CC2C2C=CC(F)=CC12 (stereo not drawn) in the assay.
RESULT: t

QUERY: Name the outcome recorded for CC12CC[C@@H]3c4cc5c(cc4CC[C@H]3[C@@H]1CCC2O)oc1cc(F)ccc15 (stereo partly drawn) in the assay.
RESULT: f

QUERY: Name the outcome recorded for O=c1cc(N2CCOCC2)oc2c(-c3ccc4c(c3)OCCO4)csc12 in the assay.
RESULT: t
